Data provenance is patent US7897732B2.

Measurement description: [3H]heparin binding of synthetic CTGF polypeptides on nitrocellulose dot-blot
Assay context: 37.5 nmol polypeptide on nitrocellulose, 10 μCi/ml [3H]heparin, room temperature
Property measured: [3H]Heparin bound (mean ± S.D.) (cpm/μg)

Solved cases below.
IRTPKISKPIKFELSG (Ac-IRTPKISKPIKFELSG-NH2) [CTGF-(257-272)]    70
LYYRKMYGDMA (Ac-LYYRKMYGDMA-OH) [CTGF-(339-349)]    9
PGDNDIFESLY (Ac-PGDNDIFESLY-NH2) [CTGF-(330-340)]    10

I. CTPHRTTTLPVEFK (Ac-CTPHRTTTLPVEFK-NH2) [CTGF-(293-306)]
II. TPKISKPIKFELSGCTS (Ac-TPKISKPIKFELSGCTS-NH2) [CTGF-(259-275)]
III. PDGEVMKKNMMFIKT (Ac-PDGEVMKKNMMFIKT-NH2) [CTGF-(308-322)]
IV. MFIKTCA (Ac-MFIKTCA-NH2) [CTGF-(318-324)]
Input: Rank ascending by [3H]Heparin bound (mean ± S.D.). Labels, requested order.
Output: I, III, II, IV
(I: 9 cpm/μg, III: 71 cpm/μg, II: 124 cpm/μg, IV: 475 cpm/μg)
